# test_method_notes: viability loss of HPDE-C7K cells – cell-based, fluorescence, HTS, primary screen (AID 431)
# settings: HPDE-C7K KRASV12 cells, Alamar Blue viability, 48 h; at 10 µM
Screen size: about 63,000 compounds; about 1,100 (1.7%) were called active.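 Rule for the calls: active = compounds whose percent cytotoxicity in the single-dose primary screen, scaled between solvent and toxic-drug controls, exceeds 50; inactive = the rest.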 The entries come from a sample that favours actives as a whole. Entries with a potency or affinity are not part of this list.
Pick one: active, inactive

* COC(=O)c1cc2ccsc2n1Cc1nc(-c2ccc(OC)cc2)oc1C | inactive
* CN(C)CCCN1c2ccccc2Sc2ccccc21 | active
* O=C(c1cc(-c2cccs2)on1)N1CCN(c2ccc(F)cc2)CC1 | inactive
* CN(C)CCCN1c2ccccc2CCc2ccc(Cl)cc21 | inactive

In the following, a different compound is considered.
Task: GET /call?item= O=C(NCc1ccccn1)C1CCN(S(=O)(=O)c2cccs2)CC1 returns the recorded outcome of this test.
Output: inactive
